Data provenance: ChEMBL document CHEMBL3044666

targetEntity: Phosphatidylinositol 4,5-bisphosphate 3-kinase catalytic subunit gamma isoform (Homo sapiens, UniProt P48736)
Sequence (P48736 whole entry, canonical isoform): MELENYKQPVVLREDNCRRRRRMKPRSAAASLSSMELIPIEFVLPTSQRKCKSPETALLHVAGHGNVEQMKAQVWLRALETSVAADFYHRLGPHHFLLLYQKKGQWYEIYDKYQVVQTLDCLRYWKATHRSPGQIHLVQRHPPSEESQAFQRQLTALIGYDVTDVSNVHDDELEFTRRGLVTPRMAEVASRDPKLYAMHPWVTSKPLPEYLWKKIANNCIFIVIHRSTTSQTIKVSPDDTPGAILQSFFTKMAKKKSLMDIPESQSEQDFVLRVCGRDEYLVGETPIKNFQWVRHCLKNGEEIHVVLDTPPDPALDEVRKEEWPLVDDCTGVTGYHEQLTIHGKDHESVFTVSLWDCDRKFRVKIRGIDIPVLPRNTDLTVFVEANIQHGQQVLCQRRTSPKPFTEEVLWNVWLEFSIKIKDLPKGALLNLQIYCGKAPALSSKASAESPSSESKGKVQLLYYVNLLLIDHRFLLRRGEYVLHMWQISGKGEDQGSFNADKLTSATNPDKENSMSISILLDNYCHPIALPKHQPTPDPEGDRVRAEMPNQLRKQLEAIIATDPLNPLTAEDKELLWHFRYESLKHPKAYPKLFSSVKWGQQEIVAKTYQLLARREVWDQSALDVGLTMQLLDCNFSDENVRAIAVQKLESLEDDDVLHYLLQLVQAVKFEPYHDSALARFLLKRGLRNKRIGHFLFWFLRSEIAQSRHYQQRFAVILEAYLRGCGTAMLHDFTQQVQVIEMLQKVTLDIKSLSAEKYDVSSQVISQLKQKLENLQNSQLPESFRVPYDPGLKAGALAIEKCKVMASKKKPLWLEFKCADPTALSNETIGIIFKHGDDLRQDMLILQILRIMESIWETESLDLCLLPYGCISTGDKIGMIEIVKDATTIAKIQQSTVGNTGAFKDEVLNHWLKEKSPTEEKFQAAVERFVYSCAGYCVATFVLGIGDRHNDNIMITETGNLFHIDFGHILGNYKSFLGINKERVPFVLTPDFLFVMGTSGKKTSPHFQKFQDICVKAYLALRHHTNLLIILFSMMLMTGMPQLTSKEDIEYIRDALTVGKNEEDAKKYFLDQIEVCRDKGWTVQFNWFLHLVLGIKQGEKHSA
experimentSummary: Inhibition of PI3Kgamma (unknown origin) using [33gammaP]ATP and phosphotidylinositol as substrate by scintillation proximity assay
I'd appreciate it if you marked entries Fulfilled when IC50 is lower than 5 µM and Not fulfilled when it is not.

Quick check: does `Cc1ccc(C(=O)N/N=C/c2ccccc2O)c(O)c1` have IC50 under 5 µM? Fulfilled

Quick check: does `Cc1ccc(C(=O)N/N=C/c2cc(Cl)cc(Cl)c2O)c(O)c1` have IC50 under 5 µM? Fulfilled

Quick check: does `Cc1ccc(C(=O)N/N=C/c2cc(Cl)ccc2O)c(O)c1` have IC50 under 5 µM? Fulfilled

Quick check: does `Cc1ccc(C(=O)N/N=C/c2cc(Br)cc(Br)c2O)c(O)c1` have IC50 under 5 µM? Not fulfilled

Quick check: does `Cc1ccc(C(=O)N/N=C/c2cc(Br)ccc2O)c(O)c1` have IC50 under 5 µM? Fulfilled

====

experimentSummary: Cytotoxicity against BALB/C Mus musculus (mouse) lymph node cells after 24 hr by MTT assay
Type: cell-based
reportedEndpoint: CC50 at 24 h (µM)
Write the number in µM without appending the unit.

The recorded CC50 at 24 h for `Cc1ccc(C(=O)N/N=C/c2ccccc2F)c(O)c1` is 362

The recorded CC50 at 24 h for `Cc1ccc(C(=O)N/N=C/c2ccc(F)cc2)c(O)c1` is 568

The recorded CC50 at 24 h for `Cc1ccc(C(=O)N/N=C/c2ccccc2)c(O)c1` is 578

The recorded CC50 at 24 h for `Cc1ccc(C(=O)N/N=C/c2cccc(Cl)c2)c(O)c1` is 636

The recorded CC50 at 24 h for `Cc1ccc(C(=O)N/N=C/c2cc(Cl)cc(Cl)c2O)c(O)c1` is 708

The recorded CC50 at 24 h for `Cc1ccc(C(=O)N/N=C/c2cccc(F)c2)c(O)c1` is 166
